Each recorded value in this set is attributed to patent US9464060B2.

- Target Under Test: human LPA1 receptors (Homo sapiens (Human), UniProt Q92633)
- Sequence (Q92633 whole entry): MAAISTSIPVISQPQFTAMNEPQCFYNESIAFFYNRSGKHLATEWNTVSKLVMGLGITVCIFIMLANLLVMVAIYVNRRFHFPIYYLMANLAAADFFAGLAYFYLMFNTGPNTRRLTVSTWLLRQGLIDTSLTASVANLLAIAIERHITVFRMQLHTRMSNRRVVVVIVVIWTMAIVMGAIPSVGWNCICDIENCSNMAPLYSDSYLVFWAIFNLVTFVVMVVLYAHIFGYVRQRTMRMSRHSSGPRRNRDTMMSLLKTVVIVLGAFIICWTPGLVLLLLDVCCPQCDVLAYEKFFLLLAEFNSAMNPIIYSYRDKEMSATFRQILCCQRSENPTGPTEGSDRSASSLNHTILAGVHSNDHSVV
- Protocol: In vitro LPA1 receptor assay (LPA-driven intracellular calcium release, FLIPR)
- Protocol Conditions: RH7777 cells expressing human LPA1 receptors; LPA at EC80
I'd be grateful if you could share measured pIC50 for these entries.
Answers are plain numbers, as −log10 of the molar value.

Consider the worked cases shown below.
Cc1ccccc1Oc1ccc(C(=O)N(Cc2ccc(C(=O)O)cc2)CC(F)(F)F)cc1 [Example 70] = 7.33
CCCN(Cc1ccc(C(=O)O)cc1)C(=O)c1ccc(Oc2ccc(F)cc2OC)cc1 [Example 80] = 6.96
COc1ccccc1Oc1ccc(C(=O)N(Cc2ccc(C(=O)O)cc2)CC2CC2)c(F)c1 [Example 66] = 8.15
COc1cccc(CN(Cc2ccc(C(=O)O)cc2)C(=O)c2ccc(Oc3ccccc3F)cc2)c1 [Example 13] = 8.40
COc1ccccc1Oc1ccc(C(=O)N(Cc2ccc(C(=O)O)cc2)CC2CC2)nc1 [Example 69] = 7.92
CCCCN(Cc1ccc(C(=O)O)cc1)C(=O)c1ccc(Oc2ccccc2F)cc1 [Example 75] = 7.51
O=C(O)c1ccc(CN(CC2CC2)C(=O)c2ccc(Oc3ccccc3F)cn2)cc1 [Example 77] = 7.07
COc1ccccc1Oc1ccc(C(=O)N(CCC(F)(F)F)Cc2ccc(C(=O)O)cc2)cc1 [Example 64] = 8.05

Required: pIC50, one value per compound below.
1. Cc1cccc(C)c1Oc1ccc(C(=O)N(CCC(C)C)Cc2ccc(C(=O)O)cc2)cc1 [Example 45]
2. Cc1cccc(C)c1Oc1ccc(C(=O)N(CCc2ccccc2)Cc2ccc(C(=O)O)cc2)cc1 [Example 47]

Reply:
1. 7.12
2. 7.66

Required: pIC50, one value per compound below.
1. Cc1ccccc1Oc1ccc(C(=O)N(CCc2ccccc2)Cc2ccc(C(=O)O)cc2)cc1 [Example 25]
2. COc1ccccc1Oc1ccc(C(=O)N(CCCc2cccc(F)c2)Cc2ccc(C(=O)O)cc2)cc1 [Example 33]
3. CC(C)CN(Cc1ccc(C(=O)O)cc1)C(=O)c1ccc(Oc2ccccc2F)cc1 [Example 4]
4. COc1ccccc1Oc1ccc(C(=O)N(CCCc2ccccc2)Cc2ccc(C(=O)O)cc2)cc1 [Example 32]
5. CC(C)CCN(Cc1ccc(C(=O)O)cc1)C(=O)c1ccc(Oc2ccccc2F)cc1 [Example 8]
6. O=C(O)c1ccc(CN(CC2CC2)C(=O)c2ccc(Oc3ccccc3F)cc2F)cc1 [Example 54]
7. CC(F)(F)CN(Cc1ccc(C(=O)O)cc1)C(=O)c1ccc(Oc2ccccc2F)cc1 [Example 74]

Reply:
7.85
9.52
7.31
8.70
7.34
7.57
7.40

====

I'd be grateful if you could share measured pIC50 for these entries.
- Target Under Test: human LPA1 receptors (Homo sapiens (Human))
- Protocol: In vitro LPA1 receptor assay (LPA-driven intracellular calcium release, FLIPR)
- Protocol Conditions: RH7777 cells expressing human LPA1 receptors; LPA at EC80
Numbers only, as −log10 of the molar value.

Consider the worked cases shown below.
CCCN(Cc1ccc(C(=O)O)cc1)C(=O)c1ncc(Oc2ccccc2OC)cn1 = 6.74
O=C(O)c1ccc(CN(CCC2CC2)C(=O)c2ccc(Oc3c(F)cccc3F)cc2)cc1 = 7.44
Cc1cccc(C)c1Oc1ccc(C(=O)N(Cc2ccccc2)Cc2ccc(C(=O)O)cc2)cc1 = 7.72

Required: pIC50, one value per molecule below.
1. O=C(O)c1ccc(CN(C[C@H](O)Cc2ccccc2)C(=O)c2ccc(Oc3ccccc3F)cc2)cc1
2. O=C(O)c1ccc(CN(C[C@@H]2C[C@H]2c2ccccc2)C(=O)c2ccc(Oc3ccccc3F)cc2)cc1 (relative stereo)
3. COc1ccccc1Oc1ccc(C(=O)N(Cc2ccc(C(=O)O)cc2)CC(F)F)cc1
4. O=C(O)c1ccc(CN(CC2CC2)C(=O)c2ccc(Oc3c(F)cccc3F)cc2)cc1
5. CCCN(Cc1ccc(C(=O)O)cc1)C(=O)c1ccc(Oc2ccccc2OC)cc1

Reply:
7.92
9.00
7.47
7.60
8.30

====

- Target Under Test: UniProtKB Q9H1C0
- Protocol: In vitro LPA5 receptor assay (LPA-driven intracellular calcium release, FLIPR)
- Protocol Conditions: RH7777 cells expressing human LPA5 receptors; LPA at EC90
I'd be grateful if you could share measured pIC50 for these entries.
Give bare numbers, as −log10 of the molar value.

O=C(O)c1ccc(CN(C[C@@H]2C[C@H]2c2ccccc2)C(=O)c2ccc(Oc3ccccc3F)cc2)cc1 (relative stereo) [Example 18] = 8.70

Required: pIC50, one value per compound below.
1. O=C(O)c1ccc(CN(Cc2ccccc2)C(=O)c2ccc(Oc3c(F)cccc3Cl)cc2)cc1 [Example 44]
2. COc1ccccc1O[C@H]1CC[C@H](C(=O)N(Cc2ccccc2)Cc2ccc(C(=O)O)cc2)CC1 [Example 56]

Reply:
1: 7.96; 2: 6.74

Required: pIC50, one value per compound below.
1. COc1cccc(CN(Cc2ccc(C(=O)O)c(F)c2)C(=O)c2ccc(Oc3ccccc3F)cc2)c1 [Example 59]
2. O=C(O)c1ccc(CN(CCCc2cccc(F)c2)C(=O)c2ccc(Oc3ccccc3F)cc2)cc1 [Example 17]
3. CCCN(Cc1ccc(C(=O)O)cc1)C(=O)c1ccc(Oc2ccccc2F)cc1 [Example 60]
4. COc1ccccc1Oc1ccc(C(=O)N(Cc2ccc(C(=O)O)cc2)CC(F)F)cc1 [Example 29]

Reply:
[8.22, 9.00, 7.22, 7.37]

Required: pIC50, one value per compound below.
1. COc1ccccc1Oc1ccc(C(=O)N(Cc2ccc(C(=O)O)cc2)CC2CC2)cc1 [Example 31]
2. Cc1cccc(C)c1Oc1ccc(C(=O)N(Cc2ccccc2)Cc2ccc(C(=O)O)cc2)cc1 [Example 46]
3. O=C(O)c1ccc(CN(CC(F)(F)F)C(=O)c2ccc(Oc3ccccc3Cl)cc2)cc1 [Example 72]
4. CC(C)CCN(Cc1ccc(C(=O)O)cc1)C(=O)c1ccc(Oc2ccccc2F)cc1 [Example 8]

Reply:
8.30
7.77
7.38
7.49

====

I'd be grateful if you could share measured pIC50 for these entries.
- Target Under Test: LPA5 receptor (Homo sapiens (Human))
- Sequence (Q9H1C0 whole entry): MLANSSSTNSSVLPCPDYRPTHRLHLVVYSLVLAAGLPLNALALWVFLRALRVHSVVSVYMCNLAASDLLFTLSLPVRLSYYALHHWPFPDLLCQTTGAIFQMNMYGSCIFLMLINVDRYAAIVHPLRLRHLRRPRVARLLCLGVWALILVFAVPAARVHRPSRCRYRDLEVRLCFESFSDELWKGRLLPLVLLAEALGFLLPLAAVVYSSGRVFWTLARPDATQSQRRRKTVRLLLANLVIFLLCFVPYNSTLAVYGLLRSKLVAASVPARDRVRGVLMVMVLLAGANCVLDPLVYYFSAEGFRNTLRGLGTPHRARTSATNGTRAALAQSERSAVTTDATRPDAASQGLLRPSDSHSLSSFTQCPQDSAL
- Protocol: In vitro LPA5 receptor assay (LPA-driven intracellular calcium release, FLIPR)
- Protocol Conditions: RH7777 cells expressing human LPA5 receptors; LPA at EC90
Give bare numbers, as −log10 of the molar value.

Consider the worked cases shown below.
COC1CC(CN(Cc2ccc(C(=O)O)cc2)C(=O)c2ccc(Oc3ccccc3F)cc2)C1 (centres unmarked) = 7.51
O=C(O)c1ccc(CN(CC2CC2)C(=O)c2ccc(Oc3c(F)cccc3F)cc2)cc1 = 7.55
CCN(Cc1ccc(C(=O)O)cc1)C(=O)c1ccc(Oc2ccccc2F)cc1 = 6.08

Required: pIC50, one value per molecule below.
1. COc1cc(F)ccc1Oc1ccc(C(=O)N(Cc2ccc(C(=O)O)cc2)CC2CC2)cc1
2. O=C(O)c1ccc(CN(CCC2CCC2)C(=O)c2ccc(Oc3ccccc3F)cc2)cc1
3. Cc1ccccc1Oc1ccc(C(=O)N(Cc2ccc(C(=O)O)cc2)CC(F)(F)F)cc1

Reply:
1. 8.00
2. 7.32
3. 6.85

Required: pIC50, one value per molecule below.
1. O=C(O)c1ccc(CN(CC2CC2)C(=O)c2ccc(OCc3ccccc3F)cc2)cc1
2. O=C(O)c1ccc(CN(CC(F)F)C(=O)c2ccc(Oc3ccccc3F)cc2)cc1
3. N#Cc1ccccc1Oc1ccc(C(=O)N(Cc2ccccc2)Cc2ccc(C(=O)O)cc2)cc1
4. O=C(O)c1ccc(CN(C[C@H](O)Cc2ccccc2)C(=O)c2ccc(Oc3ccccc3F)cc2)cc1
5. CCCCN(Cc1ccc(C(=O)O)cc1)C(=O)c1ccc(Oc2ccccc2OC)cc1
6. Cc1cccc(F)c1Oc1ccc(C(=O)N(Cc2ccc(C(=O)O)cc2)CC2CC2)cc1
7. CCCN(Cc1ccc(C(=O)O)cc1)C(=O)c1ccc(Oc2ccccc2OC)cc1
8. O=C(O)c1ccc(CN(CC2CCC2)C(=O)c2ccc(Oc3ccccc3F)cc2)cc1

Reply:
1: 7.28; 2: 6.16; 3: 6.70; 4: 7.40; 5: 8.40; 6: 7.51; 7: 8.05; 8: 7.62

====

- Target Under Test: LPA5 receptor (Homo sapiens (Human))
- Protocol: In vitro LPA5 receptor assay (LPA-driven intracellular calcium release, FLIPR)
- Protocol Conditions: RH7777 cells expressing human LPA5 receptors; LPA at EC90
Category scheme (IC50): band A (below 60 nM), band B (60 nM to below 400 nM), band C (400 nM or more)

CCOc1ccccc1Oc1ccc(C(=O)N(Cc2ccc(C(=O)O)cc2)CC2CC2)cc1 [Example 34] = band C
CC(F)(F)CN(Cc1ccc(C(=O)O)cc1)C(=O)c1ccc(Oc2ccccc2F)cc1 [Example 74] = band B
CCN(Cc1ccc(C(=O)O)cc1)C(=O)c1ccc(Oc2ccccc2Cl)cc1 [Example 76] = band B
COc1ccccc1Oc1ccc(C(=O)N(Cc2ccc(C(=O)O)cc2)CC(F)(F)F)cc1 [Example 61] = band A
Cc1ccccc1Oc1ccc(C(=O)N(Cc2ccc(C(=O)O)cc2)CC2CCC2)cc1 [Example 23] = band A

Query: Record O=C(O)c1ccc(CN(CC2CC2)C(=O)c2ccc(Oc3c(F)cccc3Cl)cc2)cc1 [Example 42] — which class?
Reply: band A

Query: Record O=C(O)c1ccc(CN(CC2CC2)C(=O)c2ncc(Oc3ccccc3F)cn2)cc1 [Example 83] — which class?
Reply: band B

Query: Record COc1cccc(Oc2ccc(C(=O)N(CCc3ccccc3)Cc3ccc(C(=O)O)cc3)cc2)c1 [Example 48] — which class?
Reply: band C

Query: Record CCCN(Cc1ccc(C(=O)O)cc1)C(=O)c1ncc(Oc2ccccc2OC)cn1 [Example 85] — which class?
Reply: band B

Query: Record O=C(O)c1ccc(CN(CCc2ccccc2)C(=O)c2ccc(Oc3cccc(Cl)c3)cc2)cc1 [Example 50] — which class?
Reply: band C

Query: Record CC(C)CN(Cc1ccc(C(=O)O)cc1)C(=O)c1ccc(Oc2ccccc2F)cc1 [Example 4] — which class?
Reply: band B
